Biological target: T1, recombinant mouse IL-25 protein (mouse, UniProt Q8VHH8 17-169)
T1 construct: Bought (Sino Biological Inc, catalog no: 50138-M07H)
T1 sequence: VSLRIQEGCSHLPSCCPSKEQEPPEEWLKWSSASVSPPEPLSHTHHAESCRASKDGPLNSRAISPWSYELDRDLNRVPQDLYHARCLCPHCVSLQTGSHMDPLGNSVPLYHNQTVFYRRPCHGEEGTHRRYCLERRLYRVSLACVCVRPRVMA
Test: ELISA, IL-25 coated, goat anti-human kappa light chain-HRP detection
Form field: pEC50 (one value per entry).
Please express pEC50 as -log10 of the molar concentration.

# annotated cases, reported pEC50 shown
-- ask Fill in: pEC50 of IL25Ab7 (antibody, IgG1, V domains shown) VH: QVQLVQSGAEVKKPGASVKVSCKASGYSFTGYTMNWVRQAPGQGLEWMGLINPDNGGTSYKQKFQGRVTMTVDKSISTAYMELSRLRSDDTAVYYCAREGYYGPSPFHHYAMDYWGQGTLVTVSS VL: DIQMTQSPSSLSASVGDRVTITCQASQDISNYLNWYQQKPDGTIKLLIYYTSTLHTGVPSRFSGSGSGTDYTFTISSLQPEDIATYYCQQYSKLPYTFGQGTKLEIK is ___
-- reply 9.61

-- ask Fill in: pEC50 of IL25Ab9 (antibody, V domains shown) VH: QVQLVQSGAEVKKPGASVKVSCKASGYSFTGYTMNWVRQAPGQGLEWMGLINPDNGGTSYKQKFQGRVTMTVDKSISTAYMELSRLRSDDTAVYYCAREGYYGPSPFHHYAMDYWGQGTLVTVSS VL: DIQMTQSPSSLSASVGDRVTITCQASQDISNYLNWYQQKPGKAPKLLIYYTSTLHTGVPSRFSGSGSGTDYTFTISSLQPEDIATYYCQQYSKLPYTFGQGTKLEIK is ___
-- reply 9.63

---
-- ask Fill in: pEC50 of IL25Ab3 (antibody, V domains shown, detected with anti-human IgG or anti-human kappa reagents; also called anti-IL-25Ab3; mouse origin of anti-IL-25 specific antibody) VH: EVQLQQSGPELVKPGGSVRISCKASGYSFTGYTMNWVKQSHGKNLEWIGLINPDNGGTSHKQRFMGKATLTVDKSSSTAYMELLSLTSEDSAVYYCAREGYYGPSPFHHYAMDYWGQGTSVTVSS VL: DIQMTQTTSSLSASLGDRVTISCSASQDISNYLNWYQQKPDGTIKLLIYYTSTLHSGVPSRFSGSGSGTDYSLTISNLEPEDIATYYCQQYSKLPYTFGGGTKLEIK is ___
-- reply 9.41
